tgt: human HDAC3/SMRT heterodimer (Homo sapiens (Human))
Sequence (O15379 whole entry): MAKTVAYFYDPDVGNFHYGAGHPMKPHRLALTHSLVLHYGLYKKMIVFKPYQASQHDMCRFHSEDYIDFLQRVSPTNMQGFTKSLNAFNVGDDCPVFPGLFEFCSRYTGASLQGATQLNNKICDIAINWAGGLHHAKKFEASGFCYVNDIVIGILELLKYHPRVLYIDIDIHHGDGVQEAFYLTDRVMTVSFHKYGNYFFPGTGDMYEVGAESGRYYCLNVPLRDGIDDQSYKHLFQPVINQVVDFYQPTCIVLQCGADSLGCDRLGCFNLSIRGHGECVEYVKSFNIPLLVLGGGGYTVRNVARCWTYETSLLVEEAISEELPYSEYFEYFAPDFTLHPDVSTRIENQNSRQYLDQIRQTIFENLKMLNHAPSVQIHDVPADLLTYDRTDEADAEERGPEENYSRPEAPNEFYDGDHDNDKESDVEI
Sequence (Q9Y618 1-899 partner): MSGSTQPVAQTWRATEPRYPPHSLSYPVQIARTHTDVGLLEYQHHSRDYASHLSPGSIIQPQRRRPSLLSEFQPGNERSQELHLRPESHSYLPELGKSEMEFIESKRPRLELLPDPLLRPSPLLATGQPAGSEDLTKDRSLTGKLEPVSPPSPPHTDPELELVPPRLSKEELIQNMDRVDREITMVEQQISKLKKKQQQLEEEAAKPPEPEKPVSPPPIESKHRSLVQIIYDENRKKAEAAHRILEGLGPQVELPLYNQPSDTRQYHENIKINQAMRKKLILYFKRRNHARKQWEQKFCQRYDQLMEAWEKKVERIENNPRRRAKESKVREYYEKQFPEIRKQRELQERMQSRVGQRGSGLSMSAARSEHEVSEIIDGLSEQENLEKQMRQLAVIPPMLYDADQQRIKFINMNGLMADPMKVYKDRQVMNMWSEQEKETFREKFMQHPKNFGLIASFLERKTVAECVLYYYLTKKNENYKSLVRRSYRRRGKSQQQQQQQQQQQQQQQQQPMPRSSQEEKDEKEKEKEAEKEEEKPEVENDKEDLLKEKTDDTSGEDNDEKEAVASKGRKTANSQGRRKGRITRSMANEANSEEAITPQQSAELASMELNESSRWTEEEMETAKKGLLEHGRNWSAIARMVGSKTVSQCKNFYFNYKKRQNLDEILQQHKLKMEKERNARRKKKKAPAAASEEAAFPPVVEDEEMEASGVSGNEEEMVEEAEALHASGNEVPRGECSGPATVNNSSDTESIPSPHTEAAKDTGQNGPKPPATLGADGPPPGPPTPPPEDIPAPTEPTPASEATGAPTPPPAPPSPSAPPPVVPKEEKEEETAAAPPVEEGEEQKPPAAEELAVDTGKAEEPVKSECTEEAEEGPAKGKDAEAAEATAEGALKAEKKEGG
test: biochemical
Please use Met for IC50 under 4 nM and Not met for everything else, ties included.

| molecule | label |
| --- | --- |
| CN(C)CC(=O)N[C@@H](CCCCCC(=O)c1ccon1)c1nc(Cl)c(-c2ccc(F)cc2)[nH]1 | Met |
| CCN1CCC2(CC1)C[C@@H]2C(=O)N[C@@H](CCCCCC(=O)c1ccon1)c1cc(-c2cc3ccc(C)nc3cc2OC)on1 | Not met |
| CN(C)CC(=O)N[C@@H](CCCCCC(=O)c1ncco1)c1ncc(-c2ccc3nccnc3c2)[nH]1 | Met |
| COc1cc2nc(C)ccc2cc1-c1cnc([C@@]2(CCCCCC(=O)c3ccon3)CCC(=O)N2)[nH]1 | Met |
| COc1cc2nc(C)ccc2cc1-c1cnc([C@H](CCCCCC(=O)c2ncco2)NC2CC(OC)C2)[nH]1 (stereo partly drawn) | Not met |
| N#Cc1nc(-c2ccc(F)cc2)oc1[C@@H](N)CCCCCC(=O)c1ncco1 | Not met |
| Cc1ccc2cc(-c3c[nH]c([C@H](CCCCCC(=O)c4ncco4)NCc4ccccc4)n3)ccc2n1 | Met |
| CN1CC(C(=O)N[C@@H](CCCCCC(=O)c2ncco2)c2[nH]c(-c3ccc(F)cc3)nc2Cl)C1 | Met |
| COc1nc(C2CC2)ccc1-c1c[nH]c([C@@H](N)CCCCCC(=O)c2ncco2)n1 | Met |
| CCn1ccc2cc(-c3c[nH]c([C@@H](N)CCCCCC(=O)c4ncco4)n3)ccc2c1=O | Met |
| Cc1ccc2cc(-c3cn(C)c([C@@H](N)CCCCCC(=O)c4ncco4)n3)ccc2n1 | Not met |
| O=C1CCCC[C@@](CCCCCC(=O)c2ccon2)(c2nc(-c3ccccc3F)c[nH]2)N1 | Not met |
| COc1cc2nc(C)ccc2cc1-c1cnc([C@H](CCCCCC(=O)c2ncco2)NC(=O)CN(C)C)[nH]1 | Met |
| Cc1ccc2cc(-c3c[nH]c([C@H](CCCCCC(=O)c4ncco4)NC4CCOCC4)n3)ccc2n1 | Not met |
| CCn1ccc2cc(-c3cnc([C@H](CCCCCC(=O)c4ccon4)NC(=O)CN(C)C)[nH]3)c(OC)cc2c1=O | Met |

====

tgt: HDAC6 (Homo sapiens (Human), UniProt Q9UBN7)
Sequence (Q9UBN7 whole entry): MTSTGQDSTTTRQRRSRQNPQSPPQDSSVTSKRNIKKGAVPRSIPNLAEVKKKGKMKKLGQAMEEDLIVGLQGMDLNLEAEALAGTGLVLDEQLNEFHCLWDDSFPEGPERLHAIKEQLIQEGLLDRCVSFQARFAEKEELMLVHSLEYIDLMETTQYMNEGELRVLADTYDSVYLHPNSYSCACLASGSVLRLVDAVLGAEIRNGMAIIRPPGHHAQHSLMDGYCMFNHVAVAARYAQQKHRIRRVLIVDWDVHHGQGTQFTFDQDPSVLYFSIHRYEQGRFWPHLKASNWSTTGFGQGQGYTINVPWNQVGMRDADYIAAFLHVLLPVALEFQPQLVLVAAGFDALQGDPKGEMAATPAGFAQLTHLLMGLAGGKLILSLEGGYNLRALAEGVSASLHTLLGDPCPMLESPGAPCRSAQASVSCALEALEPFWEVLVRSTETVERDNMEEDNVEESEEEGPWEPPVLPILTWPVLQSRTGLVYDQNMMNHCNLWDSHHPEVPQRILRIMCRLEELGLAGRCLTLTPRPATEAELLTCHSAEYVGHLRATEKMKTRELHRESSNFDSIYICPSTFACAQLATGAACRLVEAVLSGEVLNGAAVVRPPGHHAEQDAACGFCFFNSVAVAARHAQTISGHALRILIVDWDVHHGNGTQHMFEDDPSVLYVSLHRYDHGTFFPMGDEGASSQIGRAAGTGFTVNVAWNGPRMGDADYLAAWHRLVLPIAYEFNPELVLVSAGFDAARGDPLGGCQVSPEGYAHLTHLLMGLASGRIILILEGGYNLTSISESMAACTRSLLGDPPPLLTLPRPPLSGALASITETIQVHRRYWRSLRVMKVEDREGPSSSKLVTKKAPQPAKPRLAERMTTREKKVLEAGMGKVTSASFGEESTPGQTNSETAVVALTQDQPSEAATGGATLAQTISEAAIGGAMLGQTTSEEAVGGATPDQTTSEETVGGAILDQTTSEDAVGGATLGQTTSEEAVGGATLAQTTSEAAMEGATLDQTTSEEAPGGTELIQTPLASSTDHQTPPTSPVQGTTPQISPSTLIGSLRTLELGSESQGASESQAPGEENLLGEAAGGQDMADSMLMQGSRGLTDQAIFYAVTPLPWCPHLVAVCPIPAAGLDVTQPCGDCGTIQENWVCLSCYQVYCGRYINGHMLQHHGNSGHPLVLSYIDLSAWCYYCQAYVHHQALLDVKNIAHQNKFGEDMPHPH

| compound | tgt | IC50 |
| --- | --- | --- |
| Cn1c(=O)ccc2cc(-c3c[nH]c([C@@H](N)CCCCCC(=O)c4ccon4)n3)ccc21 | HDAC6 (Homo sapiens (Human), UniProt Q9UBN7) | 15 µM |
| Cn1cc2cc(-c3cc([C@@H](N)CCCCCC(=O)c4ccon4)no3)ccc2n1 | HDAC6 (Homo sapiens (Human), UniProt Q9UBN7) | > 0.9 µM |
| N[C@@H](CCCCCC(=O)c1ccon1)c1cc(-c2ccc(F)cc2)on1 | HDAC6 (Homo sapiens (Human), UniProt Q9UBN7) | 45 µM |
| COc1cc2nc(C)ccc2cc1-c1cnc([C@H](CCCCCC(=O)c2ncco2)NC(=O)Cn2cccc2)[nH]1 | HDAC6 (Homo sapiens (Human), UniProt Q9UBN7) | > 0.9 µM |
| COc1cc2nc(C)ccc2cc1-c1cnc([C@H](CCCCCC(=O)c2ncco2)NC(=O)[C@H]2CC23CCN(C)CC3)o1 | HDAC6 (Homo sapiens (Human), UniProt Q9UBN7) | 0.2 µM |
| COc1cc2nc(C)ccc2cc1-c1cnc([C@H](CCCCCC(=O)c2ncco2)NC(=O)C2CCCO2)[nH]1 (stereo partly shown) | HDAC6 (Homo sapiens (Human), UniProt Q9UBN7) | > 0.9 µM |
| CN1CC(C(=O)N[C@@H](CCCCCC(=O)c2ncco2)c2nc(-c3ccc(F)cc3)c[nH]2)C1 | HDAC6 (Homo sapiens (Human), UniProt Q9UBN7) | 45 µM |

====

tgt: human HDAC1 (Homo sapiens (Human))
Sequence (Q13547 whole entry): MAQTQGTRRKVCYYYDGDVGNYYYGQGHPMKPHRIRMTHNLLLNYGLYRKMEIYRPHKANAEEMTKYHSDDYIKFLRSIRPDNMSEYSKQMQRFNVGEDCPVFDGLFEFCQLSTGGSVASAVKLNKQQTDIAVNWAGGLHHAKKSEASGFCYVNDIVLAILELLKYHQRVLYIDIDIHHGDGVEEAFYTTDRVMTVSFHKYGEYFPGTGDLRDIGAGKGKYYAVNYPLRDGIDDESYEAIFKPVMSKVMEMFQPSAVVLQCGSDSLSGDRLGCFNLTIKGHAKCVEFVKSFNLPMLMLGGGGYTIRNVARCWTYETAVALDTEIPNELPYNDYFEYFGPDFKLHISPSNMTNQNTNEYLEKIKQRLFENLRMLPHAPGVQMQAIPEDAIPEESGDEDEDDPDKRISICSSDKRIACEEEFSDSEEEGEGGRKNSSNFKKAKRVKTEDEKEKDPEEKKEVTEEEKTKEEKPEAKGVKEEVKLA
test: biochemical

| molecule | u | IC50 |
| --- | --- | --- |
| COc1cc2nc(C)ccc2cc1-c1cnc([C@H](CCCCCC(=O)c2ncco2)NC(=O)CN(C)C)[nH]1 | nM | 0.8 |
| Cc1ccc2cc(-c3cnc([C@H](CCCCCC(=O)c4ncco4)N4CCOCC4)[nH]3)ccc2n1 | nM | 14 |
| O=C(CCCCC[C@H](NC(=O)c1cncs1)c1[nH]c(-c2ccc(F)cc2)nc1Cl)c1ncco1 | nM | 0.22 |
| COc1cc2ncccc2cc1-c1c[nH]c([C@@H](N)CCCCCC(=O)c2ncco2)n1 | nM | 1.9 |
| N#Cc1nc(-c2ccc(F)cc2)[nH]c1[C@@H](N)CCCCCC(=O)c1ncco1 | nM | 2.9 |
| COc1cc2nc(C)ccc2cc1-c1cnc([C@H](CCCCCC(=O)c2ncco2)NC(=O)C2CN(C)C2)[nH]1 | nM | 0.3 |
| O=C1CCCC[C@@](CCCCCC(=O)c2ccon2)(c2nc(-c3ccccc3F)c[nH]2)N1 | nM | 17 |
| COc1ncccc1-c1cnc(C(CCCCCC(=O)c2ncco2)NC(=O)[C@H]2CC23CCN(C)CC3)o1 (some centres unmarked) | nM | 26 |

====

tgt: UniProtKB Q9UBN7
test: biochemical
pIC50: −log10 of the molar value.
property: pIC50

| smiles_representation | property | qualifying_sign | assay_value |
| --- | --- | --- | --- |
| CCN[C@@H](CCCCCC(=O)c1ncco1)c1ncc(-c2ccc3nc(C)ccc3c2)[nH]1 | pIC50 | ≤ | 4.35 |
| CN1CC(C(=O)N[C@@H](CCCCCC(=O)c2ccon2)c2[nH]c(-c3ccccc3F)nc2Cl)C1 | pIC50 | = | 5.07 |
| Cc1ccc2cc(-c3cnc([C@H](CCCCCC(=O)c4ncco4)N4CCOCC4)[nH]3)ccc2n1 | pIC50 | ≤ | 4.35 |
| CC(=O)N[C@@H](CCCCCC(=O)c1ncco1)c1ncc(-c2ccc3nc(C)ccc3c2)[nH]1 | pIC50 | = | 5.07 |

====

tgt: HDAC6 (Homo sapiens (Human), UniProt Q9UBN7)
property: log10(IC50) (log10 of the value in µM)

| compound | log10(IC50) |
| --- | --- |
| COc1nc2ccccc2cc1-c1cnc([C@H](CCCCCC(=O)c2ncco2)NC(=O)c2ccncn2)[nH]1 | 1.32 |
| COc1nc(C)ccc1-c1c[nH]c([C@@H](N)CCCCCC(=O)c2ncco2)n1 | 1.65 |
| Cn1cc2cc(-n3ccc([C@@H](N)CCCCCC(=O)c4ncco4)n3)ccc2n1 | 1.65 |
| COc1nc2ccccc2cc1-c1cnc([C@H](CCCCCC(=O)c2ncco2)NC(=O)CN(C)C)[nH]1 | 0.52 |
| CN1CCC2(CC1)C[C@@H]2C(=O)N[C@@H](CCCCCC(=O)c1ccon1)c1nc(Cl)c(-c2ccc(F)cc2)[nH]1 | 0.49 |
| COc1nc2ccccc2cc1-c1cnc([C@H](CCCCCC(=O)c2ncco2)NC(=O)CN2CCCCC2)[nH]1 | 0.04 |
| COc1nc2ccccc2cc1-c1cnc([C@H](CCCCCC(=O)c2ncco2)NC(=O)CN2CCC2)[nH]1 | -0.16 |
| COc1nc2ccccc2cc1-c1cnc([C@H](CCCCCC(=O)c2ncco2)NC(=O)c2cncs2)[nH]1 | 1.11 |
| COc1cc2nc(C)ccc2cc1-c1c[nH]c([C@@H](N)CCCCCC(=O)c2ncco2)n1 | 0.92 |
| N[C@@H](CCCCCC(=O)c1ccon1)c1ccn(-c2ccc(F)cc2)n1 | 1.65 |
| Cc1ccc2cc(-c3cnc(C(CCCCCC(=O)c4ncco4)NC(=O)[C@H]4CC45CCN(C)CC5)o3)ccc2n1 (stereo partly drawn) | -0.37 |
| CCN(CC)CC(=O)N[C@@H](CCCCCC(=O)c1ncco1)c1ncc(-c2cc3ccccc3nc2OC)[nH]1 | 0.23 |
| N[C@@H](CCCCCC(=O)c1ncco1)c1nc(-c2ccc3nn(C4CC4)cc3c2)c[nH]1 | 1.65 |
| NC(CCCCCC(=O)c1ccon1)c1cnn(-c2ccc(F)cc2)n1 (stereo not drawn) | 1.65 |
| CCN1CCC2(CC1)C[C@@H]2C(=O)N[C@@H](CCCCCC(=O)c1ncco1)c1ncc(-c2cc(OC)ncc2F)[nH]1 | 0.63 |
| COc1cc2nc(C)ccc2cc1-c1cnc([C@H](CCCCCC(=O)c2cc(C)on2)NC(=O)CN(C)C)[nH]1 | 1.65 |

====

tgt: human HDAC8 (Homo sapiens (Human), UniProt Q9BY41)
Sequence (Q9BY41 whole entry): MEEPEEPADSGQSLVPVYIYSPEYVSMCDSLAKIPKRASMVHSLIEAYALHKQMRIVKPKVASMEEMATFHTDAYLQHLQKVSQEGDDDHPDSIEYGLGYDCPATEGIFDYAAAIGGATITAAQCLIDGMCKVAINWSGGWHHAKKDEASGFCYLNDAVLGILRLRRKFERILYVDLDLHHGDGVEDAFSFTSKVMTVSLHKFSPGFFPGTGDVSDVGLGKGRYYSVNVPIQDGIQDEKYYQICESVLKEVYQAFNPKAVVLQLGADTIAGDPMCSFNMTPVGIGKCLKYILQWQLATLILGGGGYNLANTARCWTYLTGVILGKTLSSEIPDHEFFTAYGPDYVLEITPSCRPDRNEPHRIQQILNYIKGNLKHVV
test: HDAC8 inhibition assay (modified FLUOR DE LYS, 384-well)
Type: biochemical
pIC50: −log10 of the molar value.
property: pIC50

| smiles_representation | assay_value |
| --- | --- |
| Cc1ccc2cc(-c3c[nH]c([C@H](CCCCCC(=O)c4ncco4)NC4CCN(C)CC4)n3)ccc2n1 | 5.16 |
